biological target: T1, human MSLN-R3 protein (human, UniProt Q13421 487-598); test: ELISA on coated antigen, antibody 0.1 nM
T1 construct: also called hMSLN-R3
T1 sequence (Q13421 495-606, form in doubt): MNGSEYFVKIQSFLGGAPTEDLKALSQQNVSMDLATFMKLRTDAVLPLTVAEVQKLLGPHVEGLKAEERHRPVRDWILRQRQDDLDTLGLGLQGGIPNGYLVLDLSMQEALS
measure: OD450

Need OD450 of F7.44.20-H10 (scFv, not shown: small tags and cut ends, also called S009-F7.44.20 humanized antibody VH2 + VL2) scFv: EVQLVQSGAEVKKPGASVKVSCKASGYTFTDYNMDWVRQAPGQGLEWMGDINPSTGGTIYNQKFNGRVTMTEDKSASTVYMELSSLRSEDTAVYYCARRRIGTGYFDVWGQGTTVTVSSGGGGSGGGGSGGGGSEIVLTQSPDFQSVTPKEKVTITCSASSSVISSYLSWYQQKPDQSPKLLIYRTSNLASGVPSRFSGSGSGTDYTLTINSLEAEDAATYYCHQWSSFPYTFGGGTKVEIK , thanks.
0.11 OD450

Please look up its OD450: F7.44.20-H12 (scFv, not shown: small tags and cut ends, also called S009-F7.44.20 humanized antibody VH2 + VL4) scFv: EVQLVQSGAEVKKPGASVKVSCKASGYTFTDYNMDWVRQAPGQGLEWMGDINPSTGGTIYNQKFNGRVTMTEDKSASTVYMELSSLRSEDTAVYYCARRRIGTGYFDVWGQGTTVTVSSGGGGSGGGGSGGGGSEIVLTQSPATLSLSPGERATLSCSASSSVISSYLSWYQQKPGSSPRLLIYRTSNLASGIPARFSGSGSGTDYTLTISSLEPEDFAVYYCHQWSSFPYTFGGGTKVEIK
0.09 OD450

Sample F7.44.20-H13 (scFv, not shown: small tags and cut ends, also called S009-F7.44.20 humanized antibody VH2a + VL1) scFv: EVQLVQSGAEVKKPGASVKVSCKASGYTFTDYNMDWVRQAPGQGLEWMGDINPSTGGTIYNQKFSGRVTMTEDKSASTVYMELSSLRSEDTAVYYCARRRIGTGYFDVWGQGTTVTVSSGGGGSGGGGSGGGGSEIVLTQSPDFQSVTPKEKVTITCSASSSVISSYLSWYQQKPDQSPKLLIYRTSNLASGVPSRFSGSGSGTDFTLTINSLEAEDAATYYCHQWSSFPYTFGGGTKVEIK — what was its OD450?
0.08 OD450

Look up OD450: F7.44.20-H11 (scFv, not shown: small tags and cut ends, also called S009-F7.44.20 humanized antibody VH2 + VL3) scFv: EVQLVQSGAEVKKPGASVKVSCKASGYTFTDYNMDWVRQAPGQGLEWMGDINPSTGGTIYNQKFNGRVTMTEDKSASTVYMELSSLRSEDTAVYYCARRRIGTGYFDVWGQGTTVTVSSGGGGSGGGGSGGGGSEIVLTQSPATLSLSPGERATLSCSASSSVISSYLSWYQQKPGQSPRLLIYRTSNLASGIPARFSGSGSGTDYTLTISSLEPEDFAVYYCHQWSSFPYTFGGGTKVEIK
0.16 OD450

Dear colleague, I am looking for the recorded OD450 of the following binder: F7.44.20-H5 (scFv, not shown: small tags and cut ends, also called S009-F7.44.20 humanized antibody VH1a + VL1) scFv: EVQLVQSGAEVKKPGASVKVSCKASGYTFTDYNMDWVRQAPGQGLEWMGDINPSTGGTIYNQKFQGRVTMTEDKSTSTVYMELSSLRSEDTAVYYCARRRIGTGYFDVWGQGTTVTVSSGGGGSGGGGSGGGGSEIVLTQSPDFQSVTPKEKVTITCSASSSVISSYLSWYQQKPDQSPKLLIYRTSNLASGVPSRFSGSGSGTDFTLTINSLEAEDAATYYCHQWSSFPYTFGGGTKVEIK
0.11 OD450
